Listed binders paired with reported koff
MEASUREMENT_TARGET: T1, Recombinant Human BDCA2 (human, UniProt Q8WTT0 45-213, limits assumed)
T1 construct: also called hBDCA2 (SPR analyte); human BDCA2 antigen
T1 sequence (looked up): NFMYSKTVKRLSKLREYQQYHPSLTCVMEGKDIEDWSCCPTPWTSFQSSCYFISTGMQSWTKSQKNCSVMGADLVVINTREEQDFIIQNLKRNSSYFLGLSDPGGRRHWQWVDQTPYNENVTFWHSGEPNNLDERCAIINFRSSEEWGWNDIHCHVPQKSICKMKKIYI
ASSAY_PROTOCOL: SPR (BIAcore), antibody captured by anti-human IgG (Fc), hBDCA2 as analyte, 1:1 model
Dear colleague, please return just the value in s⁻¹, with no unit written.

Ask: Fill in the blank: the reported koff of Hu033-04 (antibody, IgG1, V domains shown, Humanized IgG1; also called Hu033-04(BM0)) VH: EVQLVESGGGLVKPGGSLRLSCAASGFTFSSYGMSWVRQAPGKGLEWVSTISSGDSYTYYPDSVKGRFTISRDNAKNSLYLQMNSLRAEDTAVYYCARQIYYDYAYYFDFWGQGTTVTVSS VL: DIVMTQSPDSLAVSLGERATINCRASESVSFRTSHLMHWYQQKPGQPPKLLIYGASNLESGVPDRFSGSGSGTDFTLTISSLQAEDVAVYYCQQSIEDPPTFGGGTKVEIK is ____.
Reply: 0.000193

Ask: Fill in the blank: the reported koff of Hu033-06 (antibody, IgG1, V domains shown, Humanized IgG1; also called Hu033-06(BM3)) VH: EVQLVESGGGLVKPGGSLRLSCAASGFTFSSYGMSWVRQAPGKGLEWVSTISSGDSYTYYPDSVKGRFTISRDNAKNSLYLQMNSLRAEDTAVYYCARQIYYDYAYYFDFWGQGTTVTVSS VL: DIVLTQSPDSLAVSLGERATINCRASESVSFRTSHLMHWYQQKPGQPPKLLIYGASNLESGVPDRFSGSGSETDFTLTISPLQAEDVAVYFCQQSIEDPPTFGGGTKVEIK is ____.
Reply: 0.000125

Ask: Fill in the blank: the reported koff of Hu033-12 (antibody, IgG1, V domains shown, Humanized IgG1; also called Hu033-12(BM2)) VH: EVQLVESGGGLVKPGGSLRLSCAASGFTFRSYGMSWVRQAPGKRLEWVSTISSGDSYTYYPDSVKGRFTISRDNAKNSLYLQMNSLRAEDTAVYYCARQIYYDYAYYFDFWGQGTTVTVSS VL: DIVMTQSPDSLAVSLGERATINCRASESVSFRTSHLMHWYQQKPGQPPKLLIYGASNLESGVPDRFSGSGSGTDFTLTISSLQAEDVAVYYCQQSIEDPPTFGGGTKVEIK is ____.
Reply: 0.000149
